test system: OVCAR-3 ovarian; assay: NCI-60 one-dose screen, 48 h (100 = growth as untreated, 0 = no growth, -100 = all killed); settings: 10 µM unless noted
This is part of a sample that, as a whole, favours compounds with a hit. Of some 83,000 tested, about 20% had one in any assay.
QUANTITY_MEASURED: growth (%)
Value expressed in %; do not type the unit.

Lookup: Recall the reported growth of CC1(C)N=C(N)N=C(N)N1c1ccc(CCC(=O)Nc2ccc(S(=O)(=O)F)cc2)c(Cl)c1 when tested on OVCAR-3 ovarian.
Found: 58.9

Lookup: Recall the reported growth of Cn1cc(-c2csc(-c3cn(CCCCN4CCCCC4)c4ccc(F)cc34)n2)c2cccnc21 when tested on OVCAR-3 ovarian.
Found: 87.7

Lookup: Recall the reported growth of CC(=O)Oc1ccccc1C(=O)NCCC[Se]C#N when tested on OVCAR-3 ovarian.
Found: -5.3

Lookup: Recall the reported growth of O=C(CC1(O)C(=O)Nc2ccc(Br)cc21)c1ccc(C(=O)NCC2CCC3(CC2)OOC2(CCCCC2)OO3)cc1 (configuration not stated) when tested on OVCAR-3 ovarian.
Found: 8.92

Lookup: Recall the reported growth of COc1cc(NC(C)CCCNC2CN3CCC2CC3)c2ncccc2c1 (configuration not stated) when tested on OVCAR-3 ovarian.
Found: 11

Lookup: Recall the reported growth of Cn1cc(C2=C(c3cn(C4CCN(Cc5ccccn5)CC4)c4ccccc34)C(=O)NC2=O)c2ccccc21 when tested on OVCAR-3 ovarian.
Found: 90.3

Lookup: Recall the reported growth of O=C(O)C(O)C(O)C1[O][Sb]([c]2ccc([N+](=O)[O-])cc2)[O]C1CO (configuration not stated) when tested on OVCAR-3 ovarian.
Found: 114

Lookup: Recall the reported growth of CCCCNC(c1ccc(Cl)cc1)C(O)c1ccc(Cl)cc1 (configuration not stated) when tested on OVCAR-3 ovarian.
Found: 55.6

Lookup: Recall the reported growth of CCOC(=O)CCC(NC(=O)C(Cc1ccc(N(CCCl)CCCl)cc1)NC=O)C(=O)OCC (configuration not stated) when tested on OVCAR-3 ovarian.
Found: -17.4

Lookup: Recall the reported growth of O=C(CC1(O)C(=O)N(Cc2ccccc2)c2ccc(F)cc21)c1ccc(C(=O)NCC2CCC3(CC2)OOC2(CCCCC2)OO3)cc1 (configuration not stated) when tested on OVCAR-3 ovarian.
Found: -76.9

Lookup: Recall the reported growth of C[C@]12CCc3sc(-c4cccc(F)c4)nc3C1=CC[C@@H]1[C@@H]2CC[C@]2(C)C(=O)CC[C@@H]12 when tested on OVCAR-3 ovarian.
Found: 7.89

Lookup: Recall the reported growth of C[C@@]1(CCCCCCCCCc2ccc(O)cc2)C[C@]2(C)OC(=O)C[C@@H]2OO1 when tested on OVCAR-3 ovarian.
Found: 126

Lookup: Recall the reported growth of O=P(N1CC1)(N1CC1)N1CCc2ccccc21 when tested on OVCAR-3 ovarian.
Found: 107

Lookup: Recall the reported growth of CN[C@@]1(c2ccccc2Cl)CCCC[C@@H]1NCC1CCCO1 (some centres not stated) when tested on OVCAR-3 ovarian.
Found: 116

Lookup: Recall the reported growth of O=C1C(=Cc2cn(Cc3ccccc3)c3ccccc23)C(=O)N(Cc2ccccc2)C(=O)N1Cc1ccccc1 when tested on OVCAR-3 ovarian.
Found: 97.7

Lookup: Recall the reported growth of COc1ccc2c(c1)c(-c1nc(-c3cn(C)c4ncccc34)cs1)cn2CCN1CCOCC1 when tested on OVCAR-3 ovarian.
Found: 47.9

Lookup: Recall the reported growth of CC(=O)[O][Hg][c]1c(N)c(C)cc(C)c1F when tested on OVCAR-3 ovarian.
Found: -45.8

Lookup: Recall the reported growth of Nc1ccc(OCCNS(=O)(=O)c2cccc(S(=O)(=O)F)c2)c(Cl)c1 when tested on OVCAR-3 ovarian.
Found: 110

Lookup: Recall the reported growth of C[C@]12CC[C@H]3[C@@H](CC4SC(N)=NC45C/C(=N/NC(N)=O)CC[C@]35C)[C@@H]1CCC2=O (some centres not stated) when tested on OVCAR-3 ovarian.
Found: -32.3

Lookup: Recall the reported growth of CN[C@]1(c2ccccc2Cl)CCCC[C@H]1NCCCN1CCN(C)CC1 when tested on OVCAR-3 ovarian.
Found: 102

Lookup: Recall the reported growth of COC(=O)[C@@H](C)C[C@H](Cc1ccccc1)NC(=O)c1csc([C@@H](C[C@H](C(C)C)N(C)C(=O)[C@@H](NC(=O)[C@H]2CCCCN2C)C2CCCCC2)OC(C)=O)n1 when tested on OVCAR-3 ovarian.
Found: -21.5

Lookup: Recall the reported growth of O=C1NC(=O)C(=Cc2cn(C(=O)c3ccccc3)c3ccccc23)C(=O)N1 when tested on OVCAR-3 ovarian.
Found: 108

Lookup: Recall the reported growth of Clc1ccc(CSC(Cn2ccnc2)c2ccc(Cl)cc2Cl)cc1 (configuration not stated) when tested on OVCAR-3 ovarian.
Found: 38.8

Lookup: Recall the reported growth of CCCCN(CCCC)P(=O)(Oc1ccccc1)Oc1ccccc1 when tested on OVCAR-3 ovarian.
Found: 87.2

Lookup: Recall the reported growth of O=[N+]([O-])c1ccc([Se]C2CCCCC2Cl)c([N+](=O)[O-])c1 (configuration not stated) when tested on OVCAR-3 ovarian.
Found: 88.2

Lookup: Recall the reported growth of ClCCN(CCCl)c1ccc(/C=N\N=C\c2ccc(N(CCCl)CCCl)cc2)cc1 when tested on OVCAR-3 ovarian.
Found: 55.7

Lookup: Recall the reported growth of O=C1NC(=O)C(=Cc2cccn2CCCCCn2c3ccccc3c(=O)c3ccccc32)C(=O)N1 when tested on OVCAR-3 ovarian.
Found: 105

Lookup: Recall the reported growth of CCn1c2ccccc2c2cc(C(=O)c3cccc4c3CCCN4)ccc21 when tested on OVCAR-3 ovarian.
Found: 103

Lookup: Recall the reported growth of CCCCCCCCCCCCCCCCCCOc1ccccc1COP(=O)(O)OOCC[N+](C)(C)C when tested on OVCAR-3 ovarian.
Found: -29.2

Lookup: Recall the reported growth of CC[C@H](C)[C@H](NC(=O)c1ccccn1)C(=O)N(C)[C@H](C[C@@H](OC(C)=O)c1nc(C(=O)N[C@@H](Cc2ccccc2)C[C@H](C)C(=O)OC)cs1)C(C)C when tested on OVCAR-3 ovarian.
Found: -22.5

Lookup: Recall the reported growth of CN(C)C1C(=O)C(C(N)=O)=C(O)C2(O)C(=O)C3=C(O)c4c(O)cccc4C(C)(O)C3CC12.[Cl][Sb]([Cl])[Cl] (configuration not stated) when tested on OVCAR-3 ovarian.
Found: 38

Lookup: Recall the reported growth of COC1OC(CO)C(O)C(O)[CH]1[Hg][O]C(C)=O (configuration not stated) when tested on OVCAR-3 ovarian.
Found: 75.9

Lookup: Recall the reported growth of COC(=O)[C@]12CCC(C)(C)C[C@H]1[C@H]1C(=O)C[C@@H]3[C@@]4(C)C[C@@]5(CC(C)(C)[C@@H]4CC[C@@]3(C)[C@]1(C)CC2)OO[C@@](C)(C(F)(F)F)O5 when tested on OVCAR-3 ovarian.
Found: 106

Lookup: Recall the reported growth of CCOP(=O)(NC[C@H]1O[C@](O)(CO)[C@@H](O)[C@@H]1O)OCC when tested on OVCAR-3 ovarian.
Found: 103

Lookup: Recall the reported growth of Cc1ccc(S(=O)(=O)C(Cl)(Cl)Cl)cc1 when tested on OVCAR-3 ovarian.
Found: 110

Lookup: Recall the reported growth of C=C(C)[C@@]12OC3(/C=C/C=C/CCCCC)O[C@@H]1[C@@H]1[C@@H]4O[C@]4(CO)[C@@H](O)[C@]4(O)C(=O)C(C)=C[C@H]4[C@@]1(O3)[C@H](C)[C@H]2OC(=O)c1ccccc1 when tested on OVCAR-3 ovarian.
Found: 61.6

Lookup: Recall the reported growth of CC12CCC(O)CC1=CCC1C2CCC2(C)C(O)CCC12 (configuration not stated) when tested on OVCAR-3 ovarian.
Found: 104

Entry source: PubChem BioAssay (NCI)
